Origin of the recorded values: ChEMBL document CHEMBL1131082

# target under test: Progesterone receptor (Homo sapiens, UniProt P06401)
# Sequence (P06401 whole entry, canonical isoform): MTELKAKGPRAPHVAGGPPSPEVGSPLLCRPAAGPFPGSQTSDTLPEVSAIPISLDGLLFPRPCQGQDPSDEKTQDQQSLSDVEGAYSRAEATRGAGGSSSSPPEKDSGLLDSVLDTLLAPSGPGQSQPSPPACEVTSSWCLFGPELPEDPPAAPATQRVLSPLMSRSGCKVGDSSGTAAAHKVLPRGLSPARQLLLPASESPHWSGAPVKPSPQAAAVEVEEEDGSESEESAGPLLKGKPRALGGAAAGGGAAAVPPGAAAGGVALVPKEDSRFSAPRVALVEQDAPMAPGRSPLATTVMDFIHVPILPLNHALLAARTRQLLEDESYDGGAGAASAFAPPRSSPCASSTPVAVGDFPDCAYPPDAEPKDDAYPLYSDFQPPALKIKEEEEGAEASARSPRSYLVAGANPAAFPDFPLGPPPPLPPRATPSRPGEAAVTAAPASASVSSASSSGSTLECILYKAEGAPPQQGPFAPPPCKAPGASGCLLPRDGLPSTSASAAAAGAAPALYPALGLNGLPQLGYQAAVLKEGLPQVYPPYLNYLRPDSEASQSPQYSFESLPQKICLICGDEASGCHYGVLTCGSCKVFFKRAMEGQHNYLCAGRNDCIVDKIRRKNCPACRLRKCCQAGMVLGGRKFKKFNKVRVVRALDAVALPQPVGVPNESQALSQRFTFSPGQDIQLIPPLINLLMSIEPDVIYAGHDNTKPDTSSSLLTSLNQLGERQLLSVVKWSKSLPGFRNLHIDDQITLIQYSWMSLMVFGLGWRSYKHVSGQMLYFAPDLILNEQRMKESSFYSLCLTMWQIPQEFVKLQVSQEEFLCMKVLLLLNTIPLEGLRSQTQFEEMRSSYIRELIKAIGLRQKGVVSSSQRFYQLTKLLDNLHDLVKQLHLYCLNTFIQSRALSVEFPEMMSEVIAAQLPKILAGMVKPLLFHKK
# method summary: In vitro antagonist activity against human progesterone receptor isoform B(hPR-B) in mammalian(CV-1) cells
result type: IC50

smiles str: CC1=CC(C)(C)Nc2ccc(-c3cccc(C#N)c3)cc21
target under test: Progesterone receptor (Homo sapiens, UniProt P06401)
IC50: 0.038 µM

smiles str: CC1=CC(C)(C)Nc2ccc(-c3cc(F)cc(F)c3)cc21
target under test: Progesterone receptor (Homo sapiens, UniProt P06401)
IC50: 0.079 µM

smiles str: CC1=CC(C)(C)Nc2ccc(-c3cc(F)cc([N+](=O)[O-])c3)cc21
target under test: Progesterone receptor (Homo sapiens, UniProt P06401)
IC50: 0.07 µM

smiles str: CC1=CC(C)(C)Nc2ccc(-c3ccccc3)cc21
target under test: Progesterone receptor (Homo sapiens, UniProt P06401)
IC50: 0.783 µM

Kindly note the recorded IC50 for CC1=CC(C)(C)Nc2ccc(-c3cccc(F)c3)cc21 , which is 0.75 µM
